These measurements were taken from paper PMC12147761.

experiment: Pharmacokinetics study in mice; assay type: in vivo, ICR mice; settings: both sexes, ICR, mouse, plasma, iv, i.v. 2.5 mg/kg (Figure 3A)
Value kind: AUC(0-t) (ng·h/mL)
Kindly answer with a numeric value in ng·h/mL, unit omitted.

QUERY: // query AUC(0-t) value for entry C=CC(=O)Nc1cc(N(C(=O)NCc2ccccc2)[C@H]2CC[C@H](Nc3ccc(C#N)cn3)CC2)ccc1N1CCC(N(C)C)CC1 [YJZ5118]
RESULT: 1580

----------
molecular target: CDK1/CycE1 (Homo sapiens); construct: ICE Bioscience Inc. (assay service); assay: CDK family panel, ADP-Glo; type: biochemical
Sequence (P06493 whole entry, species assumed): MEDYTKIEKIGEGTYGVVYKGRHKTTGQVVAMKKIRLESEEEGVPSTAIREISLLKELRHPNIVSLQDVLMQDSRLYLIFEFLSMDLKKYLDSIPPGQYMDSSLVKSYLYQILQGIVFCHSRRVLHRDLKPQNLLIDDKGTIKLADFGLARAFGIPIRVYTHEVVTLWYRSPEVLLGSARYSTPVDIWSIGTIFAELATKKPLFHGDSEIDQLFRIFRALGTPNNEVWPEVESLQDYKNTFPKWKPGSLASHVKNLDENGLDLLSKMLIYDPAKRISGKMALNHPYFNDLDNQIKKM
Sequence (P24864 whole entry partner, species assumed): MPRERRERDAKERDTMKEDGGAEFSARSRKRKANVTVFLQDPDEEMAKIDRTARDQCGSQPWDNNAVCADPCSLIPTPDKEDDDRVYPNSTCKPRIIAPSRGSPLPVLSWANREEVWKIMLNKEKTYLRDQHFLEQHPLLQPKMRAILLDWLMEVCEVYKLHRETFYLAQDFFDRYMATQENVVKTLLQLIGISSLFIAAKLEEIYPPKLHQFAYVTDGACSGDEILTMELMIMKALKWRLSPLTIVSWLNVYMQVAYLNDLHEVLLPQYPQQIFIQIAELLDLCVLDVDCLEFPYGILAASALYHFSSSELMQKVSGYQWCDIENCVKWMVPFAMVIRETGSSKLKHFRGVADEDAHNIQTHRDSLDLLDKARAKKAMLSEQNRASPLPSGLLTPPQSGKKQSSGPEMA
Value kind: IC50

QUERY: // query IC50 value for entry C=CC(=O)Nc1cc(N(C(=O)NCc2ccccc2)[C@H]2CC[C@H](Nc3ccc(C#N)cn3)CC2)ccc1N1CCC(N(C)C)CC1 [YJZ5118]
RESULT: > 10000 nM

----------
experiment: Pharmacokinetics study in mice; type: in vivo, ICR mice; settings: both sexes, ICR, mouse, plasma, iv, i.v. 2.5 mg/kg (Figure 3A)
Value kind: Tmax (min)
Kindly answer with a numeric value in min, unit omitted.

QUERY: // query Tmax value for entry C=CC(=O)Nc1cc(N(C(=O)NCc2ccccc2)[C@H]2CC[C@H](Nc3ccc(C#N)cn3)CC2)ccc1N1CCC(N(C)C)CC1 [YJZ5118]
RESULT: 4.8

----------
assay: Pharmacokinetics study in mice; type: in vivo, ICR mice; details: both sexes, ICR, mouse, plasma, po, p.o. 10 mg/kg
Value kind: Cmax (ng/mL)
Kindly answer with a numeric value in ng/mL, unit omitted.

QUERY: // query Cmax value for entry C=CC(=O)Nc1cc(N(C(=O)NCc2ccccc2)[C@H]2CC[C@H](Nc3ccc(C#N)cn3)CC2)ccc1N1CCN(C)[C@@H](C)C1 [Compound 14h]
RESULT: 499

QUERY: // query Cmax value for entry C=CC(=O)Nc1cc(N(C(=O)NCc2ccccc2)[C@H]2CC[C@H](Nc3ccc(C#N)cn3)CC2)ccc1N1CCC(N(C)C)CC1
RESULT: 639

----------
molecular target: CDK1/CycA2 (Homo sapiens); construct: ICE Bioscience Inc. (assay service); experiment: CDK family panel, ADP-Glo; assay type: biochemical
Sequence (P20248 whole entry partner, species assumed, one chain of several): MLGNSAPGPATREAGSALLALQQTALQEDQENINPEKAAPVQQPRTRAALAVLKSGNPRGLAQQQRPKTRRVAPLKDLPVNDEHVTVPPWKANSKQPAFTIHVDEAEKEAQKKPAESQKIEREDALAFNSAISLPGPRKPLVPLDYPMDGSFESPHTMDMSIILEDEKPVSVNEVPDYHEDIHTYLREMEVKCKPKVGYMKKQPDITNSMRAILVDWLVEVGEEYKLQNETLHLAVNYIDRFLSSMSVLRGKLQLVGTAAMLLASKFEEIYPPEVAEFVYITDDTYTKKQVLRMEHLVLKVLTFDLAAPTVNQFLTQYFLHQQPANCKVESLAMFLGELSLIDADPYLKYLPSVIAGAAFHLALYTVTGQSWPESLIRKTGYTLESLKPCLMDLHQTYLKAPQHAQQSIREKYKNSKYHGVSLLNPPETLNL
Value kind: IC50

QUERY: // query IC50 value for entry C=CC(=O)Nc1cc(N(C(=O)NCc2ccccc2)[C@H]2CC[C@H](Nc3ccc(C#N)cn3)CC2)ccc1N1CCC(N(C)C)CC1
RESULT: > 10000 nM

----------
target: CDK18/CycY (Homo sapiens); construct: ICE Bioscience Inc. (assay service); assay: CDK family panel, ADP-Glo; type: biochemical
Value kind: IC50

QUERY: // query IC50 value for entry C=CC(=O)Nc1cc(N(C(=O)NCc2ccccc2)[C@H]2CC[C@H](Nc3ccc(C#N)cn3)CC2)ccc1N1CCC(N(C)C)CC1
RESULT: > 10000 nM

----------
target: CDK4/CycD1 (Homo sapiens); construct: ICE Bioscience Inc. (assay service); test: CDK family panel, ADP-Glo; type: biochemical
Value kind: IC50
Output should be the measured figure followed by the unit it is expressed in.

QUERY: // query IC50 value for entry C=CC(=O)Nc1cc(N(C(=O)NCc2ccccc2)[C@H]2CC[C@H](Nc3ccc(C#N)cn3)CC2)ccc1N1CCC(N(C)C)CC1 [YJZ5118]
RESULT: 3390 nM

----------
biological target: CDK12/CycK (Homo sapiens, UniProt Q9NYV4); construct: ICE Bioscience Inc. (assay service); experiment: ADP-Glo kinase assay, CDK12; type: biochemical; conditions: ADP-Glo kinase assay; means from three independent experiments
Sequence (Q9NYV4 whole entry): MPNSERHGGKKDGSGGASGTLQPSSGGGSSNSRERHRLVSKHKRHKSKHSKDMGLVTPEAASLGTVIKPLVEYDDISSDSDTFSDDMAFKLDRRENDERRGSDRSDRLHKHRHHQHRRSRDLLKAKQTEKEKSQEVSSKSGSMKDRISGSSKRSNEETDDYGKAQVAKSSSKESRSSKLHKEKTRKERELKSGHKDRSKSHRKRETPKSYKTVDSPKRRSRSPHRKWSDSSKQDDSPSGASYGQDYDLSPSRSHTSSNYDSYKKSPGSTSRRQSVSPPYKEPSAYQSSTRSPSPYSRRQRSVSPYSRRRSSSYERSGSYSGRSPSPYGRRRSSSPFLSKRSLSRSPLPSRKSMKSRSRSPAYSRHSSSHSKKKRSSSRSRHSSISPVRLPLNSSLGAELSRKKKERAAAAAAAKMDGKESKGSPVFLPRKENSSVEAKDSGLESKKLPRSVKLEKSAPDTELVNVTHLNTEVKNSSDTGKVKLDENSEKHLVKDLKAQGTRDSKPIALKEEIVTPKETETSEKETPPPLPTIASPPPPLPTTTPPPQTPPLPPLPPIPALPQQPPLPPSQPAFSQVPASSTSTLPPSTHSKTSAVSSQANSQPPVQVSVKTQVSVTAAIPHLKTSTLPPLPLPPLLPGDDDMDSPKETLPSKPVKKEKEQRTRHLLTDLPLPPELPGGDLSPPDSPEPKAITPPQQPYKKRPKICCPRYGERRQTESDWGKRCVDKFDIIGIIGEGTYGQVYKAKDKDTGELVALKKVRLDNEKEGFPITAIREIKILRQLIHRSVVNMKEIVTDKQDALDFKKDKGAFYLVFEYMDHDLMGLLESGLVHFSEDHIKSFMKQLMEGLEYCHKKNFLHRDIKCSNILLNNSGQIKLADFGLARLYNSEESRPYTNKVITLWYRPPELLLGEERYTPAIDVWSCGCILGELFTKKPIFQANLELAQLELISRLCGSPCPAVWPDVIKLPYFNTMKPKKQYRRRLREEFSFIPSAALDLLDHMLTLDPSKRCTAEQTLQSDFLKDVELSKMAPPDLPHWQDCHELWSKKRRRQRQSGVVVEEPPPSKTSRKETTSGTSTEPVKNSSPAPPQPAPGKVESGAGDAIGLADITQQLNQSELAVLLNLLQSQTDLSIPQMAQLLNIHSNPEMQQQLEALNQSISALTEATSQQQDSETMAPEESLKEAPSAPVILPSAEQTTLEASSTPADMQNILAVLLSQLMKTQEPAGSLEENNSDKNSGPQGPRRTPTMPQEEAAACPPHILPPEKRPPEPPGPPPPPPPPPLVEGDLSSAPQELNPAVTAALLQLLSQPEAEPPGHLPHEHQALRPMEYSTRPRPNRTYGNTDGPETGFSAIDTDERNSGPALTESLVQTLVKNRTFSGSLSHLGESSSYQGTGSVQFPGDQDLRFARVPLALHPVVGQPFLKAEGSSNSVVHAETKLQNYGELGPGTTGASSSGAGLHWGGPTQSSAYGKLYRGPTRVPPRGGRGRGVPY
Sequence (O75909 whole entry partner): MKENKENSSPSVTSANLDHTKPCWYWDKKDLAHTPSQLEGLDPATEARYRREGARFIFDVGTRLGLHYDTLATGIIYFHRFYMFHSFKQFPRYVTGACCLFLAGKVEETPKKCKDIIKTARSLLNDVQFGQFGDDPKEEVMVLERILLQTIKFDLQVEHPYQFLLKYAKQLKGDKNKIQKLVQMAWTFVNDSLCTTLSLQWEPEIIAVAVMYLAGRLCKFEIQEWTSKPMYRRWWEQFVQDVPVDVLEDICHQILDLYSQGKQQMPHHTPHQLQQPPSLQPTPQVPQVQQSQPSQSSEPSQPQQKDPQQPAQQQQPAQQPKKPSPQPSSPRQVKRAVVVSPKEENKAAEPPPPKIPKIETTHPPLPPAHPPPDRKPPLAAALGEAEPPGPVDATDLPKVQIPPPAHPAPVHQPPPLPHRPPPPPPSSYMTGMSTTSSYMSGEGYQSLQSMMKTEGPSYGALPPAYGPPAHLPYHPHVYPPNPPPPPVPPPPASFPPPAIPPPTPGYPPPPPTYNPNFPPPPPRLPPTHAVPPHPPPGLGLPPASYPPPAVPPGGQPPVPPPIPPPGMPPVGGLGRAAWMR
Collected IC50 values appear next to each entry.

In the examples that follow, each entry is paired with its recorded IC50.
Compound	IC50
C=CC(=O)Nc1cc(N(C(=O)NCc2ccccc2)[C@H]2CC[C@H](Nc3ccc(C#N)cn3)CC2)ccc1N1CCN(C)[C@@H](C)C1 [Compound 14h]	33.1 nM
C=CC(=O)Nc1cc(N(C(=O)NCc2ccccc2)[C@H]2CC[C@H](Nc3ccc(C#N)cn3)CC2)ccc1N1CCC(N(C)C)C1 (some centres unmarked) [Compound 14e]	568 nM
C=CC(=O)Nc1cc(N(C(=O)NCc2ccccc2)[C@H]2CC[C@H](Nc3ccc(C#N)cn3)CC2)ccc1N1CCN(C(C)=O)CC1 [Compound 14i]	331 nM

QUERY: // query IC50 value for entry C=CC(=O)Nc1cc(N(C(=O)NCc2ccccc2)[C@H]2CC[C@H](Nc3ccc(C#N)cn3)CC2)ccc1N1CCOCC1 [Compound 14j]
RESULT: 55 nM

QUERY: // query IC50 value for entry C=CC(=O)Nc1cc(N(C(=O)NCc2ccccc2)[C@H]2CC[C@H](Nc3ccc(C#N)cn3)CC2)ccc1-c1ccc(=O)n(C)c1 [Compound 14a]
RESULT: 37.9 nM

QUERY: // query IC50 value for entry C=CC(=O)Nc1cc(N(C(=O)NCc2ccccc2)[C@H]2CC[C@H](Nc3ccc(C#N)cn3)CC2)ccc1N1C[C@H]2C[C@@H]1CN2C [Compound 14g]
RESULT: 209 nM

QUERY: // query IC50 value for entry C=CC(=O)Nc1cc(N(C(=O)NCc2ccccc2)[C@H]2CC[C@H](Nc3ccc(C#N)cn3)CC2)ccc1N1CCN(C)CC1 [Compound 14f]
RESULT: 130 nM

QUERY: // query IC50 value for entry C=CC(=O)Nc1cccc(N(C(=O)NCc2ccccc2)[C@H]2CC[C@H](Nc3ccc(C#N)cn3)CC2)c1 [Compound 14b]
RESULT: 506 nM

----------
assay: Permeability and efflux ratio in Caco-2 cells; format: in vitro ADME; conditions: human
Value kind: efflux ratio
Simply state the number, no unit and no words.

> print(dat)
                                   compound  observed
1  C=CC(=O)Nc1cc(N(C(=O)NCc2ccccc2)[C@H]2CC[C@H](Nc3ccc(C#N)cn3)CC2)ccc1-c1ccc(=O)n(C)c1 [Compound 14a]      72.6

QUERY: // query efflux ratio value for entry C=CC(=O)Nc1cccc(N(C(=O)NCc2ccccc2)[C@H]2CC[C@H](Nc3ccc(C#N)cn3)CC2)c1 [Compound 14b]
RESULT: 15

----------
molecular target: CDK9/CycT1 (Homo sapiens, UniProt P50750); construct: ICE Bioscience Inc. (assay service); experiment: CDK family panel, ADP-Glo; type: biochemical
Sequence (P50750 whole entry, species assumed): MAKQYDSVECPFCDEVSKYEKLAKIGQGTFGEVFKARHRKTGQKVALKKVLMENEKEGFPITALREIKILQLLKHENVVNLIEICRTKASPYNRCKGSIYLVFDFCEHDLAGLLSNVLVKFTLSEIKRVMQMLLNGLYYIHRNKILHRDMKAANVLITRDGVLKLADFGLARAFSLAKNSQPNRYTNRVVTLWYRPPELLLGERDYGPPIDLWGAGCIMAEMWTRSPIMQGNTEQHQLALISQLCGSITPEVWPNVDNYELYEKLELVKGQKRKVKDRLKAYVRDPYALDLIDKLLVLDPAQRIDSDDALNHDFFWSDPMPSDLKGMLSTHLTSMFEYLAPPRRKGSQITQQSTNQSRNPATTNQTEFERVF
Sequence (O60563 whole entry partner, species assumed): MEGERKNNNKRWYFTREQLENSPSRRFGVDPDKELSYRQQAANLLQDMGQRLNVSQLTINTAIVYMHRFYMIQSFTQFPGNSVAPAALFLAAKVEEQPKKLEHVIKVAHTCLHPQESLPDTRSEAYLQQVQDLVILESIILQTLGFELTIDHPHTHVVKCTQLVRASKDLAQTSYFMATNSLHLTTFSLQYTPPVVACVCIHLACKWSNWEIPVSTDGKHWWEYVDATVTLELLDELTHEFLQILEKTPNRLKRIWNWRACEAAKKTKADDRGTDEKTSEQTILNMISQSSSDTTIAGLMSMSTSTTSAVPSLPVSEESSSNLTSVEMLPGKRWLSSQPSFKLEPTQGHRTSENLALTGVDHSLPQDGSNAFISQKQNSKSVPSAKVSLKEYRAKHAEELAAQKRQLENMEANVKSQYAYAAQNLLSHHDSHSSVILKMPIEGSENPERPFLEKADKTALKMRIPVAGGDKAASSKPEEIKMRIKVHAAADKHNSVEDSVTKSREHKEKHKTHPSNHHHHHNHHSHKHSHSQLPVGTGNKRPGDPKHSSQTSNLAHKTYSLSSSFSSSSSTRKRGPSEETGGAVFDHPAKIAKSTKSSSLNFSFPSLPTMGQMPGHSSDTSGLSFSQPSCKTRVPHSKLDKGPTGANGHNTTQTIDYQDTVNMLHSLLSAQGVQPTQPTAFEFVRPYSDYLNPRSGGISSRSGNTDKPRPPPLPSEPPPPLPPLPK
Value kind: IC50

QUERY: // query IC50 value for entry C=CC(=O)Nc1cc(N(C(=O)NCc2ccccc2)[C@H]2CC[C@H](Nc3ccc(C#N)cn3)CC2)ccc1N1CCC(N(C)C)CC1
RESULT: 4910 nM

----------
test: Pharmacokinetics study in mice; type: in vivo, ICR mice; details: both sexes, ICR, mouse, plasma, iv, i.v. 2.5 mg/kg (Figure 3A)
Value kind: half-life (h)
Kindly answer with a numeric value in h, unit omitted.

QUERY: // query half-life value for entry C=CC(=O)Nc1cc(N(C(=O)NCc2ccccc2)[C@H]2CC[C@H](Nc3ccc(C#N)cn3)CC2)ccc1N1CCC(N(C)C)CC1
RESULT: 1.29

----------
biological target: CDK9/CycK (Homo sapiens, UniProt P50750); construct: ICE Bioscience Inc. (assay service); experiment: CDK family panel, ADP-Glo; type: biochemical
Sequence (O75909 whole entry partner, species assumed, one chain of several): as the sequence (O75909 whole entry partner) above
Value kind: IC50 (nM)
Kindly answer with a numeric value in nM, unit omitted.

QUERY: // query IC50 value for entry C=CC(=O)Nc1cc(N(C(=O)NCc2ccccc2)[C@H]2CC[C@H](Nc3ccc(C#N)cn3)CC2)ccc1N1CCC(N(C)C)CC1
RESULT: 7160

----------
test: Pharmacokinetics study in mice; type: in vivo, ICR mice; settings: both sexes, ICR, mouse, plasma, ip, i.p. 2.5 mg/kg
Value kind: AUC(0-t) (ng·h/mL)
Kindly answer with a numeric value in ng·h/mL, unit omitted.

QUERY: // query AUC(0-t) value for entry C=CC(=O)Nc1cc(N(C(=O)NCc2ccccc2)[C@H]2CC[C@H](Nc3ccc(C#N)cn3)CC2)ccc1N1CCC(N(C)C)CC1
RESULT: 1860

----------
molecular target: CDK5/p25NCK (Homo sapiens, UniProt Q00535); construct: ICE Bioscience Inc. (assay service); test: CDK family panel, ADP-Glo; type: biochemical
Sequence (Q00535 whole entry): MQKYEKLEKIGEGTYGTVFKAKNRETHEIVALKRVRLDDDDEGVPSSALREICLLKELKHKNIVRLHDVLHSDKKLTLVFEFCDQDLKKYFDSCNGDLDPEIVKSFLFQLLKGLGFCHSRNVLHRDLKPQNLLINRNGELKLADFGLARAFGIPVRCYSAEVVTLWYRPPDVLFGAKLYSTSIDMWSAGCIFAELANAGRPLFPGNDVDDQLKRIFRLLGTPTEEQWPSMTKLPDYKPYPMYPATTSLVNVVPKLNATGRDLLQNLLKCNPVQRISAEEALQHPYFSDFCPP
Sequence (Q15078 99-307 partner): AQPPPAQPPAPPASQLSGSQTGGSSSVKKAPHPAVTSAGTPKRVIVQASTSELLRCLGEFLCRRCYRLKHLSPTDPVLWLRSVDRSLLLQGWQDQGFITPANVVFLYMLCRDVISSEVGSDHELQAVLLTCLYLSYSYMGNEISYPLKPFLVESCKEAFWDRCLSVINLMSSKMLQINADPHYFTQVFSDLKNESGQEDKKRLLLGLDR
Value kind: IC50

QUERY: // query IC50 value for entry C=CC(=O)Nc1cc(N(C(=O)NCc2ccccc2)[C@H]2CC[C@H](Nc3ccc(C#N)cn3)CC2)ccc1N1CCC(N(C)C)CC1
RESULT: > 10000 nM

----------
target: CDK13/CycK (Homo sapiens, UniProt Q14004); construct: ICE Bioscience Inc. (assay service); experiment: ADP-Glo kinase assay, CDK13; format: biochemical; conditions: means from three independent experiments
Value kind: IC50
Output should be the measured figure followed by the unit it is expressed in.

In the examples that follow, each entry is paired with its recorded IC50.
Compound	Measurement target	Observed
C=CC(=O)Nc1cc(N(C(=O)NCc2ccccc2)[C@H]2CC[C@H](Nc3ccc(C#N)cn3)CC2)ccc1N1CCN(C(C)=O)CC1 [Compound 14i]	CDK13/CycK (Homo sapiens, UniProt Q14004)	164 nM
C=CC(=O)Nc1cc(N(C(=O)NCc2ccccc2)[C@H]2CC[C@H](Nc3ccc(C#N)cn3)CC2)ccc1N1CCN(C)CC1 [Compound 14f]	CDK13/CycK (Homo sapiens, UniProt Q14004)	66.8 nM
C=CC(=O)Nc1cc(N(C(=O)NCc2ccccc2)[C@H]2CC[C@H](Nc3ccc(C#N)cn3)CC2)ccc1N1CCN(C)[C@@H](C)C1 [Compound 14h]	CDK13/CycK (Homo sapiens, UniProt Q14004)	21.7 nM
C=CC(=O)Nc1cc(N(C(=O)NCc2ccccc2)[C@H]2CC[C@H](Nc3ccc(C#N)cn3)CC2)ccc1N(C)CCN(C)C [Compound 14c]	CDK13/CycK (Homo sapiens, UniProt Q14004)	79.3 nM

QUERY: Quick check: IC50 on CDK13/CycK (Homo sapiens, UniProt Q14004), item C=CC(=O)Nc1cc(N(C(=O)NCc2ccccc2)[C@H]2CC[C@H](Nc3ccc(C#N)cn3)CC2)ccc1N1CCOCC1 [Compound 14j] ?
RESULT: 12.8 nM

QUERY: Quick check: IC50 on CDK13/CycK (Homo sapiens, UniProt Q14004), item C=CC(=O)Nc1cccc(N(C(=O)NCc2ccccc2)[C@H]2CC[C@H](Nc3ccc(C#N)cn3)CC2)c1 [Compound 14b] ?
RESULT: 99 nM

QUERY: Quick check: IC50 on CDK13/CycK (Homo sapiens, UniProt Q14004), item C=CC(=O)Nc1cc(N(C(=O)NCc2ccccc2)[C@H]2CC[C@H](Nc3ccc(C#N)cn3)CC2)ccc1N1CCC(N(C)C)C1 (some centres unmarked) [Compound 14e] ?
RESULT: 177 nM

QUERY: Quick check: IC50 on CDK13/CycK (Homo sapiens, UniProt Q14004), item C=CC(=O)Nc1cc(N(C(=O)NCc2ccccc2)[C@H]2CC[C@H](Nc3ccc(C#N)cn3)CC2)ccc1-c1ccc(=O)n(C)c1 [Compound 14a] ?
RESULT: 14.9 nM
